MEASUREMENT KIND: Kd

Write down the reported Kd of C[C@@H](Nc1nc(Cl)nc2c1CN(C(=O)N1CCOCC1)C2)c1cccc2c1COCC2(F)F [Example 523] , test system: SOS1 catalytic domain (residues 564-1049) (Homo sapiens, UniProt Q07889). < 400 nM

Write down the reported Kd of C[C@@H](Nc1nc(Cl)nc2c1CN(C(=O)N1CCOCC1)C2)c1cccc(C(F)F)c1Br [Example 528] , test system: SOS1 catalytic domain (residues 564-1049) (Homo sapiens, UniProt Q07889). > 400 nM

Write down the reported Kd of CC(C)N1CC(C)(C(=O)N2Cc3nc(Cl)nc(N[C@H](C)c4cccc(C(F)F)c4F)c3C2)C1 [Example 338] , test system: SOS1 catalytic domain (residues 564-1049) (Homo sapiens, UniProt Q07889). < 400 nM

Write down the reported Kd of C[C@@H](Nc1nc(Cl)nc2c1CN(C(=O)N1CCCC13CCNC3)C2)c1cccc(C(F)F)c1F (some centres unmarked) [Example 382] , test system: SOS1 catalytic domain (residues 564-1049) (Homo sapiens, UniProt Q07889). < 400 nM

Write down the reported Kd of C[C@@H](Nc1nc(Cl)nc2c1CN(C(=O)N1CCNc3ncccc31)C2)c1cccc(C(F)(F)F)c1 [Example 370] , test system: SOS1 catalytic domain (residues 564-1049) (Homo sapiens, UniProt Q07889). < 400 nM

Write down the reported Kd of COC1(C(=O)N2Cc3nc(Cl)nc(N[C@H](C)c4cccc(C(F)F)c4F)c3C2)COC1 [Example 489] , test system: SOS1 catalytic domain (residues 564-1049) (Homo sapiens, UniProt Q07889). < 400 nM

Write down the reported Kd of C[C@@H](Nc1nc(Cl)nc2c1CN(C(=O)C1(C)CCNCC1)C2)c1cccc(C(F)(F)F)c1 [Example 314] , test system: SOS1 catalytic domain (residues 564-1049) (Homo sapiens, UniProt Q07889). < 400 nM

Write down the reported Kd of C[C@@H](Nc1nc(Cl)nc2c1CN(C(=O)N1CCOCC1)C2)c1cccc(C(F)(F)F)c1 [Example 137] , test system: SOS1 catalytic domain (residues 564-1049) (Homo sapiens, UniProt Q07889). < 400 nM

Write down the reported Kd of C[C@@H](Nc1nc(Cl)nc2c1CN(C(=O)N1CCOCC1)C2)c1cccc(C(F)(F)COC2CC2)c1F [Example 469] , test system: SOS1 catalytic domain (residues 564-1049) (Homo sapiens, UniProt Q07889). < 400 nM

Write down the reported Kd of CC(=O)N1Cc2nc(C)nc(N[C@H](C)c3cc(N)cc(C(F)(F)F)c3)c2C1 [Example 120] , test system: SOS1 catalytic domain (residues 564-1049) (Homo sapiens, UniProt Q07889). > 400 nM

Write down the reported Kd of Cc1nc2c(c(N[C@H](C)c3cc(N)cc(C(F)(F)F)c3)n1)CN(C(=O)OC1CCOCC1)C2 [Example 118] , test system: SOS1 catalytic domain (residues 564-1049) (Homo sapiens, UniProt Q07889). > 400 nM

Write down the reported Kd of C[C@@H](Nc1nc(Cl)nc2c1CN(C(=O)C1(F)CNC1)C2)c1cccc(C(F)F)c1F [Example 282] , test system: SOS1 catalytic domain (residues 564-1049) (Homo sapiens, UniProt Q07889). < 400 nM

Write down the reported Kd of C[C@@H](Nc1ncnc2c1CC(N1CC3(COC3)C1)CC2)c1cccc(C(F)F)c1F (some centres unmarked) [Example 442] , test system: SOS1 catalytic domain (residues 564-1049) (Homo sapiens, UniProt Q07889). < 400 nM

Write down the reported Kd of C[C@@H](Nc1nc(Cl)nc2c1CN(C(=O)C13CC(O)(C1)C3)CC2)c1cc(N)cc(C(F)(F)F)c1 [Example 193] , test system: SOS1 catalytic domain (residues 564-1049) (Homo sapiens, UniProt Q07889). < 400 nM

Write down the reported Kd of C[C@@H](Nc1nc(Cl)nc2c1CN(C(=O)c1cnc3[nH]ccc3c1)C2)c1cc(N)cc(C(F)(F)F)c1 [Example 91] , test system: SOS1 catalytic domain (residues 564-1049) (Homo sapiens, UniProt Q07889). > 400 nM

Write down the reported Kd of C[C@@H](Nc1nc(Cl)nc2c1C[C@H](N1CCOCC1)CC2)c1cc(N)cc(C(F)(F)F)c1 (single isomer, unassigned) [Example 169] , test system: SOS1 catalytic domain (residues 564-1049) (Homo sapiens, UniProt Q07889). < 400 nM

Write down the reported Kd of C[C@@H](Nc1nc(Cl)nc2c1CN(C(=O)C1(O)COC1)C2)c1cccc(C(F)F)c1F [Example 300] , test system: SOS1 catalytic domain (residues 564-1049) (Homo sapiens, UniProt Q07889). < 400 nM

Write down the reported Kd of C[C@@H](Nc1nc(Cl)nc2c1CN(S(=O)(=O)N1CCOCC1)C2)c1cc(N)cc(C(F)(F)F)c1 [Example 24] , test system: SOS1 catalytic domain (residues 564-1049) (Homo sapiens, UniProt Q07889). < 400 nM

Write down the reported Kd of C[C@@H](Nc1nc(Cl)nc2c1CN(C(=O)N1CCOc3ncccc31)C2)c1cccc(C(F)(F)F)c1 [Example 366] , test system: SOS1 catalytic domain (residues 564-1049) (Homo sapiens, UniProt Q07889). < 400 nM

Write down the reported Kd of C[C@@H](Nc1nc(Cl)nc2c1CC(N1CC3(COC3)C1)CC2)c1cc(N)cc(C(F)(F)F)c1 (some centres unmarked) [Example 433] , test system: SOS1 catalytic domain (residues 564-1049) (Homo sapiens, UniProt Q07889). < 400 nM

Write down the reported Kd of C[C@@H](Nc1nc(Cl)nc2c1CN(C(=O)N1C3CC1CN(C1COC1)C3)C2)c1cccc(C(F)F)c1F [Example 422] , test system: SOS1 catalytic domain (residues 564-1049) (Homo sapiens, UniProt Q07889). < 400 nM

Write down the reported Kd of C[C@@H](Nc1nc(Cl)nc2c1CN(S(=O)(=O)C1CC1)CC2)c1cc(N)cc(C(F)(F)F)c1 [Example 452] , test system: SOS1 catalytic domain (residues 564-1049) (Homo sapiens, UniProt Q07889). < 400 nM

Write down the reported Kd of C[C@@H](Nc1nc(Cl)nc2c1CN(S(=O)(=O)c1c[nH]cn1)CC2)c1cc(N)cc(C(F)(F)F)c1 [Example 458] , test system: SOS1 catalytic domain (residues 564-1049) (Homo sapiens, UniProt Q07889). < 400 nM

Write down the reported Kd of C[C@@H](Nc1nc(Cl)nc2c1CN(C(=O)C13CN(C1)S(=O)(=O)C3)C2)c1cccc(C(F)F)c1F [Example 297] , test system: SOS1 catalytic domain (residues 564-1049) (Homo sapiens, UniProt Q07889). < 400 nM

Write down the reported Kd of C[C@@H](Nc1nc(Cl)nc2c1CN(C(=O)c1ccc(OC(F)F)cn1)C2)c1cc(N)cc(C(F)(F)F)c1 [Example 61] , test system: SOS1 catalytic domain (residues 564-1049) (Homo sapiens, UniProt Q07889). < 400 nM

Write down the reported Kd of C[C@@H](Nc1nc(Cl)nc2c1CN(C(=O)c1ccnnc1)CC2)c1cc(N)cc(C(F)(F)F)c1 [Example 228] , test system: SOS1 catalytic domain (residues 564-1049) (Homo sapiens, UniProt Q07889). < 400 nM

Write down the reported Kd of C[C@@H](Nc1nc(Cl)nc2c1CC(N1CCOCC1)CC2)c1cccc(C(F)(F)F)c1 (some centres unmarked) [Example 435] , test system: SOS1 catalytic domain (residues 564-1049) (Homo sapiens, UniProt Q07889). < 400 nM

Write down the reported Kd of COc1cccnc1C(=O)N1Cc2nc(Cl)nc(N[C@H](C)c3cc(N)cc(C(F)(F)F)c3)c2C1 [Example 74] , test system: SOS1 catalytic domain (residues 564-1049) (Homo sapiens, UniProt Q07889). < 400 nM

Write down the reported Kd of C[C@@H](Nc1nc(Cl)nc2c1CN(C(=O)c1csc(N3CCOCC3)n1)C2)c1cc(N)cc(C(F)(F)F)c1 [Example 85] , test system: SOS1 catalytic domain (residues 564-1049) (Homo sapiens, UniProt Q07889). > 400 nM

----------
Test system: PC-9 cells (EGFR Ex19Del)
Assay: Potency Assay: pERK (SOS1 pERK IC50 Assay, AlphaLISA SureFire Ultra p-ERK1/2)
Assay type: cell-based
Conditions: Homo sapiens; PC-9 cells (EGFR Ex19Del), 1 hour incubation, AlphaLISA p-ERK1/2; read-out: SOS1 pERK IC50
pIC50: −log10 of the molar value.
MEASUREMENT KIND: pIC50

Give the measured pIC50 of CC(Nc1nc(Cl)nc2c1CN(C(=O)N1CCOCC1)C2)c1cccc(S(C)(=O)=O)c1 (stereo not shown) . < 6.00

Give the measured pIC50 of `C[C@@H](Nc1nc(Cl)nc2c1CN(C(=O)CN1CCN(C)CC1)C2)c1cccc(C(F)F)c1F` . > 6.00

Give the measured pIC50 of `C[C@@H](Nc1nc(Cl)nc2c1CN(C(=O)N1CCN(C3COC3)CC1)C2)c1cccc(C(F)(F)CO)c1` . > 6.00

Give the measured pIC50 of C[C@@H](Nc1nc(Cl)nc2c1CN(C(=O)C1CCN1)C2)c1cccc(C(F)F)c1F (stereo partly shown) . > 6.00

Give the measured pIC50 of C[C@@H](Nc1nc(Cl)nc2c1CN(C(=O)N1CCNC3CC31)C2)c1cccc(C(F)(F)F)c1 (stereo partly shown) . > 6.00

Give the measured pIC50 of `C[C@@H](Nc1nc(O)nc2c1CN(C(=O)N1CCOCC1)C2)c1cc(N)cc(C(F)(F)F)c1` . < 6.00

Give the measured pIC50 of `COC1(C(=O)N2CCc3nc(Cl)nc(N[C@H](C)c4cc(N)cc(C(F)(F)F)c4)c3C2)CC1` . < 6.00
